# MEASUREMENT_TARGET: EGFR (Homo sapiens, UniProt P00533)
# Sequence (P00533 25-1210): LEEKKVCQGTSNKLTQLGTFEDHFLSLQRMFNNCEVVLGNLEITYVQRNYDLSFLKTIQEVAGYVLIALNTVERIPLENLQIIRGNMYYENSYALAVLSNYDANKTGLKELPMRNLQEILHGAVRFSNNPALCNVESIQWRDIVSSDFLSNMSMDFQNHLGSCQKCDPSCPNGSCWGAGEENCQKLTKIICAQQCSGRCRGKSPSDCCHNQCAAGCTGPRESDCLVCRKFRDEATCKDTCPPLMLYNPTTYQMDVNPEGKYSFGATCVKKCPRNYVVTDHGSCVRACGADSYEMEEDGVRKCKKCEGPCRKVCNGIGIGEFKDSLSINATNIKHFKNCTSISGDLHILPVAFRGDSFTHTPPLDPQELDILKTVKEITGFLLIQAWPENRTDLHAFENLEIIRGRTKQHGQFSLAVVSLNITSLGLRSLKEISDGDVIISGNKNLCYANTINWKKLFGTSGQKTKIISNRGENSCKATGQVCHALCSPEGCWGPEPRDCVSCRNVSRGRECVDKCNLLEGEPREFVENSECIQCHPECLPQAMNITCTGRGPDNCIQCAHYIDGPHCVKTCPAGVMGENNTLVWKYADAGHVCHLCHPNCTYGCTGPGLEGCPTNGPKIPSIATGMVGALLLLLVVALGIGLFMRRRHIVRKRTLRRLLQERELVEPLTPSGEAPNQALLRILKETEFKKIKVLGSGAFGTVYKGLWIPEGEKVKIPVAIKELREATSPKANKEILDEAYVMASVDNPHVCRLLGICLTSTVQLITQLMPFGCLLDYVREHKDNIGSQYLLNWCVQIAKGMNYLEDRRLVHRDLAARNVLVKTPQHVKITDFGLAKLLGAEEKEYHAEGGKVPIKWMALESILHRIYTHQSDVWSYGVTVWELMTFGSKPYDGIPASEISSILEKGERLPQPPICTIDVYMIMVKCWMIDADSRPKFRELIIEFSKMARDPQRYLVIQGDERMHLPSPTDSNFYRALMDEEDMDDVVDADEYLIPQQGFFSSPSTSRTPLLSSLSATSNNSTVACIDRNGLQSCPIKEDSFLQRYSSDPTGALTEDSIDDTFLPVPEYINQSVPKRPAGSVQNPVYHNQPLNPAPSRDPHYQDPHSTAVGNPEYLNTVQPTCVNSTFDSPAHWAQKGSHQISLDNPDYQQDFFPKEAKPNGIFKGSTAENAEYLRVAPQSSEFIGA
# TEST_NAME: EGFR signaling (pEGFR Tyr1068/total EGFR MSD) in A431 cells
# Format: cell-based
# Parameters: endogenous in cells; host or cells: A431, N87
# CONDITION_LABEL: ratio A431 pEGFR EC50 to BT474 pHER2 EC50
# From the text: In addition to the engineered cell lines, the following cell lines were used: BT474 (human breast carcinoma), N87 (human gastric carcinoma), NCI-H1781 (human lung adenocarcinoma), and A431 (human epidermoid carcinoma); all cell lines were obtained from the American Type Culture Collection (ATCC, Manassas, VA). […]
OBSERVED_PROPERTY: Selectivity A431 EC50/BT474 EC50

Worked examples follow.
Cc1ccc(Oc2ccc(Nc3ncnc4sc5c(c34)CCN(C(=O)/C=C/CN3CC4CCC(C3)O4)C5)cc2C)cn1 [Compound 13]; C (C: ≥ 10 and < 20)
O=C(/C=C/CN1CC2CC(C2)C1)N1CCc2c(sc3ncnc(Nc4ccc(Oc5ccc6ncnn6c5)c(Cl)c4)c23)C1 [Compound 85]; C (C: ≥ 10 and < 20)
Cc1ccc(Oc2ccc(Nc3ncnc4sc5c(c34)CCN(C(=O)/C=C/CN3CCO[C@@H](CO)C3)C5)cc2C)cn1 [Compound 144]; B (B: ≥ 20 and < 100)
Cc1ccc(Oc2ccc(Nc3ncnc4sc5c(c34)C(C)CN(C(=O)/C=C/CN(C)C(C)(C)C)C5)cc2C)cn1 (stereo not shown) [Compound 175]; C (C: ≥ 10 and < 20)
CON(C)C/C=C/C(=O)N1CCc2c(sc3ncnc(Nc4ccc(Oc5ccc(C)nc5)c(C)c4)c23)C1 [Compound 56]; C (C: ≥ 10 and < 20)

Next up:
Tell me measured Selectivity A431 EC50/BT474 EC50 for Cc1ccc(Oc2ccc(Nc3ncnc4sc5c(c34)CCN(C(=O)/C=C/CN3CC(C)OC(C)C3C)C5)cc2C)cn1 (stereo not shown) [Compound 117] please.
B (B: ≥ 20 and < 100)

Attribution: patent US20240391931A1
